assay: UKN2_HCS_IMR90_neural_migration: University of Konstanz (UKN) Leist Lab Neural Crest Cell Migration Assay in human induced IMR90 Pluripotent Stem Cells (UKN2) (AID 2284204); settings: actives raise or lower the signal
Activity calls are given as the source filed them. The calls were made as follows: active = hit-call score of the fitted dose curve at least 0.9, where 1 is the maximum; inactive = score below 0.9.
// one of y (active), n (inactive), no free text

Observe how each entry below is paired with its result.
COC(=O)N(OC)c1ccccc1COc1ccn(-c2ccc(Cl)cc2)n1: y
CN(C)C(=S)SSC(=S)N(C)C: y
C=CC1(C)OC(=O)N(c2cc(Cl)cc(Cl)c2)C1=O (stereo unspecified): n
CCOc1cc(Oc2ccc(C(F)(F)F)cc2Cl)ccc1[N+](=O)[O-]: n
CCCCOC(=O)c1ccccc1C(=O)OCCCC: n

Read the next record carefully.
Problem: Entry `CC(C)(C)c1ccc(CSc2cnn(C(C)(C)C)c(=O)c2Cl)cc1` : call = ?
Solution: n

---

Molecular target: frog Thyroid hormone Receptor alpha (TRa), thra-a (gene 397942) (UniProt P15204)
Sequence (P15204 whole entry, looked up): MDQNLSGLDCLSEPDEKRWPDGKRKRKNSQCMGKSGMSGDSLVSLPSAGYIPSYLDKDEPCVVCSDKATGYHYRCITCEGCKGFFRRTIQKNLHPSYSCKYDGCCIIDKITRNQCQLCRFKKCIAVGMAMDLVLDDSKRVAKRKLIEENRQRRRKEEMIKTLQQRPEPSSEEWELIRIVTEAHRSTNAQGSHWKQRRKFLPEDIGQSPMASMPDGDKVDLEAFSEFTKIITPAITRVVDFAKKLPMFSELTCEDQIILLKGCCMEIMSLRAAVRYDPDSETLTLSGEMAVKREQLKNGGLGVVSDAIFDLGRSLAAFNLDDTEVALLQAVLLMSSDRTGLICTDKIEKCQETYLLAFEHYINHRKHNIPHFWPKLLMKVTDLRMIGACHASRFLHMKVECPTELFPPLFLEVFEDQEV
Experiment: ATG_frTRa_XSP2: Attagene TRANS-FACTORIAL Multi-Species (XSP2) HepG2 Assay for frog Thyroid hormone Receptor alpha (TRa) (AID 2283839)
Protocol: ATG_XSP2_multi-species_TRANS is a cell-based, multiplexed assay created by modifying the existing Attagene TRANS-FACTORIAL system to include a panel of nuclear receptors from some or all the following species: human (Homo sapiens), mouse (Mus musculus), frog (Xenopus laevis), zebrafish (Danio rerio), chicken (Gallus gallus), and turtle (Chrysemys picta). The ECOTOX-FACTORIAL format uses HepG2, a human liver cell line, with measurements taken at 24 hours after chemical dosing in a 24-well plate. […]
Results filed as inconclusive are left out. Active and inactive are the calls of the source. The calls were made as follows: active = hit-call score of the fitted dose curve at least 0.9, where 1 is the maximum; inconclusive = response in the unintended direction; inactive = score below 0.9.
// one of 1.0 = active, 0.0 = inactive, no free text

Observe how each entry below is paired with its result.
CCCCNC(=O)OCC#CI: 1.0
CON(C)C(=O)Nc1ccc(Cl)c(Cl)c1: 0.0
CCCCOC(=O)c1ccccc1C(=O)OCCCC: 0.0
CCOP(=S)(OCC)SCn1c(=O)oc2cc(Cl)ccc21: 0.0

Problem: Entry C#CCOS(=O)OC1CCCCC1Oc1ccc(C(C)(C)C)cc1 (stereo not given) : call = ?
Solution: 0.0

---

experiment: CCTE_Shafer_MEA_dev_AB: CCTE's Alamar Blue Assay for Cytotoxicity in the Neural Network Formation Assay, Shafer Lab (AID 2284083);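 also: resazurin reduction fluorescence as viability of cultured neurons; twelve days of exposure from plating with re-dosing on DIV 5 and 9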
Records with an inconclusive call do not appear. Active and inactive are the calls of the source. How the source made its calls: active means hit-call score of the fitted dose curve at least 0.9, where 1 is the maximum; inconclusive means response in the unintended direction; inactive means score below 0.9.
// one of true (active), false (inactive), no free text

Observe how each entry below is paired with its result.
CCCCNC(=O)n1c(NC(=O)OC)nc2ccccc21: false
CCOc1cc(Oc2ccc(C(F)(F)F)cc2Cl)ccc1[N+](=O)[O-]: true

Problem: Entry `CCCCOC(=O)c1ccccc1C(=O)OCCCC` : call = ?
Solution: false

Problem: Entry `CN(C)C(=S)SSC(=S)N(C)C` : call = ?
Solution: true

Problem: Entry `CNC(=O)ON=CC(C)(C)SC` : call = ?
Solution: false

Problem: Entry `CC(C)(C)c1ccc(CSc2cnn(C(C)(C)C)c(=O)c2Cl)cc1` : call = ?
Solution: true

Problem: Entry `COP(=S)(OC)Oc1nc(Cl)c(Cl)cc1Cl` : call = ?
Solution: false

Problem: Entry `C=CCC1=C(C)[C@@H](OC(=O)[C@@H]2[C@@H](C=C(C)C)C2(C)C)CC1=O` : call = ?
Solution: true

Problem: Entry C=CC1(C)OC(=O)N(c2cc(Cl)cc(Cl)c2)C1=O (stereo not given) : call = ?
Solution: false

Problem: Entry `Cc1ccc(-c2c(Cl)nc(C#N)n2S(=O)(=O)N(C)C)cc1` : call = ?
Solution: true

---

read-out: Matrix Metallopeptidase 1 (MMP1), MMP1 (gene 4312); experiment: BSK_hDFCGF_MMP1: BioMAP Diversity Plus: hDFCGF Assay for Matrix Metallopeptidase 1 (MMP1) Biomarker Activity (AID 2283064); conditions: primary human foreskin fibroblasts; actives raise or lower the signal
Calls of active or inactive are those of the source. The calls were made as follows: active = hit-call score of the fitted dose curve at least 0.9, where 1 is the maximum; inactive = score below 0.9.
// one of 1 = active, 0 = inactive, no free text

Problem: Entry COC(=O)C(C)Oc1ccc(Oc2ccc(Cl)cc2Cl)cc1 (configuration not stated) : call = ?
Solution: 0

---

test: ACEA_AR_agonist_AUC_viability: ACEA Biosciences xCELLigence Real-Time Cell Analysis on Androgen Receptor Agonism for Viability (AID 2283775);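 also: viability read 80 hours after compound addition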
Results filed as inconclusive are left out. Active and inactive are the calls of the source. Rule for the calls: active = hit-call score of the fitted dose curve at least 0.9, where 1 is the maximum; inconclusive = response in the unintended direction; inactive = score below 0.9.
Listed next: entries and their corresponding AC50.

Consider the worked cases shown below.
COc1ccc(C(c2ccc(OC)cc2)C(Cl)(Cl)Cl)cc1: 80.8 µM (active)
O=C(Nc1ccccc1)Nc1ccnc(Cl)c1: 39.1 µM (active)
C=CCC1=C(C)[C@@H](OC(=O)[C@@H]2[C@@H](C=C(C)C)C2(C)C)CC1=O: 66.9 µM (active)
CCCCOC(=O)c1ccccc1C(=O)OCCCC: 77.2 µM (active)
CC1COC(Cn2cncn2)(c2ccc(Oc3ccc(Cl)cc3)cc2Cl)O1 (stereo unspecified): 44.8 µM (active)

Next up:
Reported AC50 ( `COC(=O)C=C(C)OP(=O)(OC)OC` ) = 29.8 µM (active)

---

assay: BSK_3C_Vis: BioMAP Diversity Plus: 3C Assay for Morphology Visualization (AID 2283025); conditions: primary human endothelial cells (HUVEC);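 also: light microscopy image of cell morphology used as background control; cells imaged 24 h after dosing; fitted both ways so gain or loss versus DMSO counts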
Active and inactive are the calls of the source. Rule for the calls: active = hit-call score of the fitted dose curve at least 0.9, where 1 is the maximum; inactive = score below 0.9.
// one of t for active, f for inactive, no free text

Problem: Entry N#Cc1nn(-c2c(Cl)cc(C(F)(F)F)cc2Cl)c(N)c1S(=O)C(F)(F)F (stereo not drawn) : call = ?
Solution: t

---

read-out: Apolipoprotein A-V (APOA5) gene, APOA5 (gene 116519); assay: LTEA_HepaRG_APOA5: Life Technologies and Expression Analysis (LTEA) Assay for Apolipoprotein A-V (APOA5) gene using HepaRG (AID 2283474); settings: mRNA level, 48 h; actives raise or lower the signal
The source made the active and inactive calls. How the source made its calls: active means hit-call score of the fitted dose curve at least 0.9, where 1 is the maximum; inactive means score below 0.9.
// one of Y = active, N = inactive, no free text

Cc1ccc(-c2c(Cl)nc(C#N)n2S(=O)(=O)N(C)C)cc1: Y

Problem: Entry N#CC(CCc1ccc(Cl)cc1)(Cn1cncn1)c1ccccc1 (stereo not drawn) : call = ?
Solution: Y

Problem: Entry `CCCCNC(=O)OCC#CI` : call = ?
Solution: N

Problem: Entry `COC(=O)c1ccccc1C(=O)OC` : call = ?
Solution: N

Problem: Entry `CON(C)C(=O)Nc1ccc(Cl)c(Cl)c1` : call = ?
Solution: N

Problem: Entry `O=C(O)COc1nc(Cl)c(Cl)cc1Cl` : call = ?
Solution: N

---

assay: Tanguay_ZF_120hpf_NC_legacy: (Legacy) Oregon State University Tanguay Lab 120 Hour Post-fertilization zebrafish Assay for Notochord and Tail Malformation (AID 2283656)
Results filed as inconclusive are left out. The source made the active and inactive calls. How the source made its calls: active means hit-call score of the fitted dose curve at least 0.9, where 1 is the maximum; inconclusive means response in the unintended direction; inactive means score below 0.9.
// one of YES (active), NO (inactive), no free text

Observe how each entry below is paired with its result.
C#CCOS(=O)OC1CCCCC1Oc1ccc(C(C)(C)C)cc1 (stereo unspecified): NO
CCON=C(CC)C1=C(O)CC(c2c(C)cc(C)cc2C)CC1=O (stereo unspecified): NO

Problem: Entry COC(=O)C(C)Oc1ccc(Oc2ccc(Cl)cc2Cl)cc1 (stereo unspecified) : call = ?
Solution: NO

Problem: Entry `CNC(=S)S` : call = ?
Solution: NO

Problem: Entry `Oc1ccccc1-c1ccccc1` : call = ?
Solution: NO

Problem: Entry `N#Cc1cc(Br)c(O)c(Br)c1` : call = ?
Solution: NO

Problem: Entry `CCNc1nc(Cl)nc(NC(C)C)n1` : call = ?
Solution: NO

Problem: Entry `COc1nc(NC(C)C)nc(NC(C)C)n1` : call = ?
Solution: NO

Problem: Entry CCCCC(CC)COC(=O)c1ccccc1C(=O)OCC(CC)CCCC (stereo unspecified) : call = ?
Solution: NO

Problem: Entry CC(Oc1ccc(Cl)cc1Cl)C(=O)O (stereo unspecified) : call = ?
Solution: NO

Problem: Entry `CNC(=O)ON=CC(C)(C)SC` : call = ?
Solution: NO

Problem: Entry `CCOc1cc(Oc2ccc(C(F)(F)F)cc2Cl)ccc1[N+](=O)[O-]` : call = ?
Solution: NO

Problem: Entry `CCCCOC(=O)c1ccccc1C(=O)OCCCC` : call = ?
Solution: NO

Problem: Entry `COC(=O)c1ccccc1C(=O)OC` : call = ?
Solution: NO

Problem: Entry C=CCC1=C(C)C(OC(=O)C2C(C=C(C)C)C2(C)C)CC1=O (stereo unspecified) : call = ?
Solution: NO

Problem: Entry `CC(C)Oc1cc(-n2nc(C(C)(C)C)oc2=O)c(Cl)cc1Cl` : call = ?
Solution: NO

---

assay: Tanguay_ZF_120hpf_SOMI_legacy: (Legacy) Oregon State University Tanguay Lab 120 Hour Post-fertilization zebrafish Assay for Somite Malformation (AID 2283647)
Inconclusive results are not listed. Calls of active or inactive are those of the source. The calls were made as follows: active = hit-call score of the fitted dose curve at least 0.9, where 1 is the maximum; inconclusive = response in the unintended direction; inactive = score below 0.9.
// one of active, inactive, no free text

Observe how each entry below is paired with its result.
COC(=O)C=C(C)OP(=O)(OC)OC: inactive
C=CCC1=C(C)[C@@H](OC(=O)[C@@H]2[C@@H](C=C(C)C)C2(C)C)CC1=O: inactive
C=CCC1=C(C)C(OC(=O)C2C(C=C(C)C)C2(C)C)CC1=O (centres undefined): inactive
CO/C=C(/C(=O)OC)c1ccccc1Oc1cc(Oc2ccccc2C#N)ncn1: inactive

Problem: Entry `CCCCNC(=O)n1c(NC(=O)OC)nc2ccccc21` : call = ?
Solution: inactive

Problem: Entry `O=C(O)COc1nc(Cl)c(Cl)cc1Cl` : call = ?
Solution: inactive

Problem: Entry `Fc1ccc(Oc2ccnc3cc(Cl)cc(Cl)c23)cc1` : call = ?
Solution: inactive

Problem: Entry `Cc1ccc(-c2c(Cl)nc(C#N)n2S(=O)(=O)N(C)C)cc1` : call = ?
Solution: inactive

Problem: Entry `COc1nc(NC(C)C)nc(NC(C)C)n1` : call = ?
Solution: inactive

Problem: Entry CCOC(=O)C(Cl)Cc1cc(-n2nc(C)n(C(F)F)c2=O)c(F)cc1Cl (centres undefined) : call = ?
Solution: active

Problem: Entry `CCCCNC(=O)OCC#CI` : call = ?
Solution: inactive

Problem: Entry `CCNc1nc(Cl)nc(NCC)n1` : call = ?
Solution: inactive

Problem: Entry COC(=O)C(C)Oc1ccc(Oc2ccc(Cl)cc2Cl)cc1 (centres undefined) : call = ?
Solution: inactive

Problem: Entry CC(C)C1(C)N=C(c2nc3ccccc3cc2C(=O)O)NC1=O (centres undefined) : call = ?
Solution: inactive

Problem: Entry `COP(=S)(OC)Oc1nc(Cl)c(Cl)cc1Cl` : call = ?
Solution: inactive
